- test system: human Nav1.8/b3 (Homo sapiens)
- Construct: expressed in transfected cells; host or cells: CHO
- procedure summary: Compound Profiling Human NaV1.8/β3 Cell Line—SyncroPatch384PE Assay (automated patch clamp, stably transfected CHO cells)
- Assay type: cell-based
- condition set: P2 measurement, inactivated state block; Nav1.8/b3 CHO cells, inactivation step −35 mV 10 sec; third set of compounds; read-out: P2 (IC50, inactivated state block)
assay readout: IC50

Any idea what its IC50 is? The compound is Cc1nc(F)ccc1Oc1ncc(C(F)(F)F)c(C)c1C(=O)Nc1cccc(S(C)(=O)=NCC2(N)CC2)c1 (stereo not drawn) [Example 92C]
< 5 nM

Query (compound): CNCCN=[S@](C)(=O)c1cccc(NC(=O)c2c(Oc3ccc(F)nc3C)ncc(C(F)(F)F)c2C)c1 [Example 109C] ; field requested: IC50
< 5 nM

Could you tell me which IC50 is on file for Cc1nc(F)ccc1Oc1c(C2CC2)ncc(F)c1C(=O)Nc1cccc([S@](C)(=N)=O)c1 [Example 37C] ?
> 200 nM

Can you look up the measured IC50 of Cc1nc(F)ccc1Oc1ncc(C(F)(F)F)c(C)c1C(=O)Nc1ccnc(C(N)=O)c1 [Example 120C] for me?
5 to 50 nM

I have this compound here, Cc1nc(F)ccc1Oc1cnc(C(F)(F)F)c(C)c1C(=O)Nc1cccc([S@](C)(=N)=O)c1 [Example 44C] , and I need its recorded IC50.
5 to 50 nM

Could you share which IC50 value was measured for Cc1nc(F)ccc1Oc1ncc(C(F)F)c(C)c1C(=O)Nc1ccnc([S@](C)(=N)=O)c1 [Example 115C] ?
> 200 nM

* * *

Give measured IC50 for each item. Keep answers brief.
- test system: human Nav1.8/b3 (Homo sapiens)
- Construct: expressed in transfected cells; host or cells: CHO
- procedure summary: Compound Profiling Human NaV1.8/β3 Cell Line—SyncroPatch384PE Assay (automated patch clamp, stably transfected CHO cells)
- Assay type: cell-based
- condition set: P1 (IC50, resting state block), P1 measurement, resting state block; Nav1.8/b3 CHO cells, holding potential −120 mV; fourth set of compounds
Where a name gives a salt, the structure may show the parent alone.

Need IC50 of Cc1nc(F)ccc1Oc1nnc(C(F)(F)F)c(C)c1C(=O)Nc1cccc([S@@](C)(=O)=NC(=O)CO)c1 [Example 20D] , thanks.
5 to 50 nM

Requested read-out: IC50. Entry: Cc1nc(F)ccc1Oc1ncc(C(F)(F)F)c(C)c1C(=O)Nc1cccc([S@@](C)(=O)=NC(=O)[C@H]2CCCN2)c1 [Example 23D, formate]
< 5 nM

// query IC50 value for entry Cc1nc(F)ccc1Oc1ncc(C(F)(F)F)c(C)c1C(=O)Nc1cccc([S@@](C)(=O)=NC(=O)[C@@H](C)N)c1 [Example 9D, formate]
< 5 nM

Fill in the blank: the reported IC50 of Cc1nc(F)ccc1Oc1ncc(C(F)(F)F)c(C)c1C(=O)Nc1cccc([S@@](C)(=O)=NC(=O)[C@@H](C)O)c1 [Example 16D] is ____.
< 5 nM

What value of measured IC50 is listed for Cc1nc(F)ccc1Oc1ncc(C(F)(F)F)c(C)c1C(=O)Nc1cccc([S@@](C)(=O)=NC(=O)[C@@H]2CCCN2)c1 [Example 22D] ?
< 5 nM

Reported IC50 for "Cc1nc(F)ccc1Oc1ncc(C(F)(F)F)c(C)c1C(=O)Nc1cccc([S@@](C)(=O)=NC(=O)C2(N)CC2)c1" : what is it?
< 5 nM

* * *

- test system: human Nav1.8/β1 (Homo sapiens)
- Construct: host or cells: HEK293
- Sequence (Q9Y5Y9 whole entry): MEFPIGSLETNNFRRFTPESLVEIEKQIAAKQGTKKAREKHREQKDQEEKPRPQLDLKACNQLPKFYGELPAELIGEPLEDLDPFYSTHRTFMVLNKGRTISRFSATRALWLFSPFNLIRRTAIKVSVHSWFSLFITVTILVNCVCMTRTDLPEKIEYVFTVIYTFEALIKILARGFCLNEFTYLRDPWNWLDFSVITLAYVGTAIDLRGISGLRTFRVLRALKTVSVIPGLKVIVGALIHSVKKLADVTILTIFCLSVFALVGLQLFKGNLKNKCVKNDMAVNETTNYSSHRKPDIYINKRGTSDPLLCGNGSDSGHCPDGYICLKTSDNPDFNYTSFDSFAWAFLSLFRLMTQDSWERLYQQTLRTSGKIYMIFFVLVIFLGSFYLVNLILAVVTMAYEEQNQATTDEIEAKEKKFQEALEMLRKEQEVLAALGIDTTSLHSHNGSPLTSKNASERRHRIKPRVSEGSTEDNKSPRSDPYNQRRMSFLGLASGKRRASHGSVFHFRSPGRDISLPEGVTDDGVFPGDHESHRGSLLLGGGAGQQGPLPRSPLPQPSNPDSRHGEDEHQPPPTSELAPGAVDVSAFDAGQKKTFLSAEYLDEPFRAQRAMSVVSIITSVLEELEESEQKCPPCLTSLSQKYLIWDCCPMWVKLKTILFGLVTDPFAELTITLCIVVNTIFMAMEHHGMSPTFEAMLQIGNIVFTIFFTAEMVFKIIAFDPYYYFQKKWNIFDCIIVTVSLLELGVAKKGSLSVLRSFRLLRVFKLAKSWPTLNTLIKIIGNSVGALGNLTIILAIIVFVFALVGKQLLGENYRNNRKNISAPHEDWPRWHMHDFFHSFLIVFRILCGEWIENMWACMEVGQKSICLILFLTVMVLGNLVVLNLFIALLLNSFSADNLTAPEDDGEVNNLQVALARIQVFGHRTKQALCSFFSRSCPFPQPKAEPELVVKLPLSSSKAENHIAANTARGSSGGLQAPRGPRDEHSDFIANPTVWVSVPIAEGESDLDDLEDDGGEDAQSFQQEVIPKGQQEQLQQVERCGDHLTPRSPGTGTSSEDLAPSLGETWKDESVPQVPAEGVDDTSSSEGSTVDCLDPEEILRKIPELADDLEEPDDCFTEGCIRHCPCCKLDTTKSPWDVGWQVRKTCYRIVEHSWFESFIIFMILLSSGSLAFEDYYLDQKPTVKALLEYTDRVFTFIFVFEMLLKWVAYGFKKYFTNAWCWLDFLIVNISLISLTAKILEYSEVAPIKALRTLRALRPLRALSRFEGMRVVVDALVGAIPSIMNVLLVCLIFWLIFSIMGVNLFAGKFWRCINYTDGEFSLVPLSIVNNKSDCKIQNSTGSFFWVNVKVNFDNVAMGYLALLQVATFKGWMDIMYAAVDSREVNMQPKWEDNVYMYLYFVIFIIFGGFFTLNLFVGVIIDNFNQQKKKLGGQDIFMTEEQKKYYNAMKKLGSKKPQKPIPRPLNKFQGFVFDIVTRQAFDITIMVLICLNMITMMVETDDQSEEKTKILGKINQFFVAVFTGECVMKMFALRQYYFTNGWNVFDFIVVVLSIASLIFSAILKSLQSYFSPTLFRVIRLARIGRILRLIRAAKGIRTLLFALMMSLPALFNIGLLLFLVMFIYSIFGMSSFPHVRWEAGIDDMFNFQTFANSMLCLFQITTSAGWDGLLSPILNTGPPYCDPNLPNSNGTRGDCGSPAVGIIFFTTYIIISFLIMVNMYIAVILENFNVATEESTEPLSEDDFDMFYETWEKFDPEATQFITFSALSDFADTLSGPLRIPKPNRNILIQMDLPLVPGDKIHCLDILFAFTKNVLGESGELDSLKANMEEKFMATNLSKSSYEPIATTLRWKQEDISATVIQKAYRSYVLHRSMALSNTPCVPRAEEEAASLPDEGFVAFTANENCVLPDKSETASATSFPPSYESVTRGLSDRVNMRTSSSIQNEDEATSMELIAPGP
- Sequence (Q07699 19-218 partner): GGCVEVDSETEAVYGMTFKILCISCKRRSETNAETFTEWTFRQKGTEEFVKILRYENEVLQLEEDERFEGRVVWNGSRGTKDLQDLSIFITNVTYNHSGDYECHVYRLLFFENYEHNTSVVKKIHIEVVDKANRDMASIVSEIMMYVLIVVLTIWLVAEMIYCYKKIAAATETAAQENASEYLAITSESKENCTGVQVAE
- procedure summary: Compound Profiling Human NaV1.8/β1 Cell Line—Sophion QPatch II Assay (automated patch clamp, stably transfected HEK293 cells)
- Format: cell-based
pIC50: −log10 of the molar value.
assay readout: pIC50

Please give the measured pIC50 for this compound: Cc1nc(F)ccc1Oc1cc(C(F)(F)F)ccc1C(=O)Nc1ccnc([S@](C)(=N)=O)c1 [Example 28A]
< 6.70

Given the entry Cc1nc(F)ccc1Oc1ncc(C(F)(F)F)c(C)c1C(=O)Nc1cccc([S@@]2(=O)=NCCC2)c1 [Example 80C] , report its measured pIC50.
6.70 to 7.00

Data request, read-out pIC50, for Cc1nc(F)ccc1Oc1ncc(C(F)(F)F)c(C)c1C(=O)Nc1cccc([S@](=N)(=O)CCO)c1 [Example 67C]
7.30 to 8.30

Find the recorded pIC50 belonging to Cc1nc(F)ccc1Oc1ncc(C(F)(F)F)c(C)c1C(=O)Nc1cccc(S(=N)(=O)CCC(C)(C)O)c1 (stereo not shown) [Example 42C] and report it.
< 6.70

pIC50 lookup needed for Cc1nc(F)ccc1Oc1cc(C(F)(F)F)ccc1C(=O)Nc1cccc([S@@](C)(=N)=O)c1 [Example 31A] , thanks.
6.70 to 7.00

Which measured pIC50 value corresponds to Cc1nc(F)ccc1Oc1cc(C(F)(F)F)ccc1C(=O)Nc1ccc(F)c([S@](C)(=N)=O)c1 [Example 30A] ?
6.70 to 7.00

Consider the compound CNC(C)(C)CCS(=N)(=O)c1cccc(NC(=O)c2c(Oc3ccc(F)nc3C)ncc(C(F)(F)F)c2C)c1 (stereo not shown) [Example 50C] and give its measured pIC50.
7.30 to 8.30

* * *

For each of the compounds below, state its IC50.
- test system: human Nav1.8/b3 (Homo sapiens, UniProt Q9Y5Y9)
- Construct: expressed in transfected cells; host or cells: CHO
- Sequence (Q9NY72 23-215 partner, one chain of several): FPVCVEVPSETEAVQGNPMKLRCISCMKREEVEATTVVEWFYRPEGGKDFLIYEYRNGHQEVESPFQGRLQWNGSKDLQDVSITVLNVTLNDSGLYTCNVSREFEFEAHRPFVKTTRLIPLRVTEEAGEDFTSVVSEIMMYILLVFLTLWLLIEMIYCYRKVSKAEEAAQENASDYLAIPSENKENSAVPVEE
- procedure summary: Compound Profiling Human NaV1.8/β3 Cell Line—SyncroPatch384PE Assay (automated patch clamp, stably transfected CHO cells)
- Format: cell-based
- condition set: P2 (IC50, inactivated state block), P2 measurement, inactivated state block; Nav1.8/b3 CHO cells, inactivation step −35 mV 10 sec; first set of compounds

# query: IC50 of entry Cc1nc(F)ccc1Oc1cc(C(F)(F)F)cc(F)c1C(=O)Nc1ccnc([S@](C)(=N)=O)c1 [Example 40A]
5 to 50 nM

# get_value(readout='IC50', item= Cc1nc(F)ccc1Oc1cc(C(F)(F)F)c(Cl)c(F)c1C(=O)Nc1cccc([S@](C)(=N)=O)c1 [Example 43A] )
< 5 nM

Sample Cc1nc(F)ccc1Oc1cc(C(F)(F)F)c(Cl)cc1C(=O)Nc1cccc([S@@](C)(=O)=NCCN)c1 [Example 14A] — what was its IC50?
< 5 nM

Given the compound Cc1nc(F)ccc1Oc1cc(C(F)(F)F)c(Cl)cc1C(=O)Nc1ccc(F)c([S@@+](C)[O-])c1 [Example 56A] , what is its reported IC50?
< 5 nM

Suppose we examine the compound Cc1nc(F)ccc1Oc1cc(C2CC2)c(C(F)(F)F)c(C)c1C(=O)Nc1ccnc([S@@](C)(=N)=O)c1 [Example 38A] ; what IC50 value has been reported?
< 5 nM

Record request: IC50 value, item Cc1nc(F)ccc1Oc1cc(C2CC2)c(C(F)(F)F)cc1C(=O)Nc1ccc(F)c([S@@](C)(=N)=O)c1 [Example 51A]
< 5 nM

Which IC50 reading was recorded for the compound Cc1nc(F)ccc1Oc1cc(C(F)(F)F)c(Cl)c(C)c1C(=O)Nc1ccnc(C(N)=O)c1 [Example 62A] ?
< 5 nM

Could you tell me which IC50 is on file for Cc1nc(F)ccc1Oc1cc(C2CC2)c(C(F)(F)F)cc1C(=O)Nc1ccnc([S@@](C)(=N)=O)c1 [Example 57A] ?
5 to 50 nM

Give the measured IC50 of Cc1nc(F)ccc1Oc1cc(C(F)(F)F)c(Cl)cc1C(=O)Nc1ccnc(C(N)=O)c1 [Example 72A] .
< 5 nM

I would be grateful if you could share the reported IC50 for Cc1nc(F)ccc1Oc1cc(C2CC2)c(C(F)(F)F)cc1C(=O)Nc1cccc([S@](C)(=N)=O)c1 [Example 67A] .
< 5 nM

Suppose we examine the compound "Cc1nc(F)ccc1Oc1cc(C(F)(F)F)ccc1C(=O)Nc1cccc([S@](C)(=N)=O)c1" ; what IC50 value has been reported?
5 to 50 nM

Which value of IC50 has been reported for Cc1nc(F)ccc1Oc1cc(C(F)(F)F)c(Cl)cc1C(=O)Nc1ccc([S@](C)(=N)=O)cc1 [Example 49A] in the records?
50 to 100 nM

Fill blank: measured IC50 of the compound "Cc1nc(F)ccc1Oc1ccc(C(F)(F)F)c(C)c1C(=O)Nc1cccc([S@](C)(=N)=O)c1" is ____.
< 5 nM

What does the record list as IC50 for Cc1nc(F)ccc1Oc1cc(C(F)(F)F)c(Cl)c(F)c1C(=O)Nc1ccnc([S@@](C)(=N)=O)c1 [Example 34A] ?
< 5 nM

For the compound shown here, Cc1nc(F)ccc1Oc1cc(C(F)(F)F)cc(F)c1C(=O)Nc1ccc(C(N)=O)cc1 [Example 36A] , give the reported IC50.
5 to 50 nM

* * *

- test system: human Nav1.8/b3 (Homo sapiens)
- Construct: expressed in transfected cells; host or cells: CHO
- procedure summary: Compound Profiling Human NaV1.8/β3 Cell Line—SyncroPatch384PE Assay (automated patch clamp, stably transfected CHO cells)
- Format: cell-based
- condition set: P2 (IC50, inactivated state block), P2 measurement, inactivated state block; Nav1.8/b3 CHO cells, inactivation step −35 mV 10 sec; first set of compounds
pIC50: −log10 of the molar value.
For each of the compounds below, state its pIC50.

Request the reported pIC50 associated with Cc1nc(F)ccc1Oc1cc(C(F)(F)F)c(Cl)cc1C(=O)Nc1cccc(C(N)=O)c1 [Example 73A]
> 8.30

Please report the recorded pIC50 for Cc1nc(F)ccc1Oc1cc(C(F)(F)F)c(Cl)cc1C(=O)Nc1ccnc([S@@](C)(=N)=O)c1 (single isomer, unassigned) [Example 5A] .
7.30 to 8.30

# input compound: Cc1nc(F)ccc1Oc1cc(C(F)(F)F)c(Cl)cc1C(=O)Nc1ccc(F)c([S+](C)[O-])c1 (stereo not drawn) [Example 69A] ; wanted: its pIC50
> 8.30

Requested field: pIC50. Item: Cc1nc(F)ccc1Oc1ccc(-c2cnn(C)c2)c(C)c1C(=O)Nc1cccc([S@](C)(=N)=O)c1 [Example 7A]
< 6.70

What value of measured pIC50 is listed for Cc1nc(F)ccc1Oc1cc(C(F)(F)F)c(Cl)cc1C(=O)Nc1ccc(F)c([S@](C)(=N)=O)c1 [Example 71A] ?
> 8.30

Any idea what its pIC50 is? The compound is Cc1nc(F)ccc1Oc1cc(C(F)(F)F)c(Cl)c(C)c1C(=O)Nc1cccc(C(N)=O)c1 [Example 61A]
> 8.30

So what's the measured pIC50 for this one? Cc1nc(F)ccc1Oc1cc(C(F)(F)F)c(Cl)cc1C(=O)Nc1ccc(C(N)=O)nc1 [Example 64A]
7.30 to 8.30

Given the entry Cc1nc(F)ccc1Oc1cc(C(F)(F)F)c(Cl)c(C)c1C(=O)NC12CC(C(N)=O)(C1)C2 [Example 53A] , report its measured pIC50.
< 6.70

Please give the measured pIC50 for this compound: Cc1nc(F)ccc1Oc1cc(C(F)(F)F)c(Cl)c(F)c1C(=O)Nc1ccnc([S@](C)(=N)=O)c1 [Example 41A]
> 8.30

Fill blank: measured pIC50 of the compound Cc1nc(F)ccc1Oc1cc(C(F)(F)F)c(Cl)c(F)c1C(=O)NC12CC(C(N)=O)(C1)C2 [Example 47A] is ____.
< 6.70

I am curious: what pIC50 value has been reported for Cc1nc(F)ccc1Oc1cc(C(F)(F)F)c(Cl)c(C)c1C(=O)Nc1ccnc([S@](C)(=N)=O)c1 [Example 65A] ?
> 8.30

pIC50 lookup needed for Cc1nc(F)ccc1Oc1cc(C(F)(F)F)c(Cl)cc1C(=O)Nc1ccc(F)c([S@+](C)[O-])c1 [Example 55A] , thanks.
> 8.30

I am curious: what pIC50 value has been reported for Cc1nc(F)ccc1Oc1cc(C2CC2)c(C(F)(F)F)c(C)c1C(=O)Nc1ccnc([S@](C)(=N)=O)c1 [Example 39A] ?
> 8.30

Which pIC50 is listed for Cc1nc(F)ccc1Oc1cc(C(F)(F)F)c(Cl)c(C)c1C(=O)Nc1cccc([S@](C)(=N)=O)c1 [Example 10A] ?
> 8.30

What value of pIC50 has been reported for the following compound? Cc1nc(F)ccc1Oc1cc(C(F)(F)F)c(Cl)cc1C(=O)Nc1ccc(F)c([S@@](C)(=N)=O)c1 [Example 70A]
> 8.30
